Recorded values, source ChEMBL document CHEMBL5120786.

System: Panel NCI-60 (60 carcinoma cell lines)
experimentNotes: Anticancer activity against human NCI-60 cells assessed as cell growth inhibition incubated for 72 hrs by MTT assay
Format: functional
experimentalSetup: read-out: pGI50 (converted)
Listed molecules paired with reported GI50
Output spec: scalar in µM, unitless text.

In the examples that follow, each entry is paired with its recorded GI50.
In: Return reported GI50; argument: `c1cnc2[nH]cc(-c3csc(-c4cn(CCCN5CCCCC5)c5ccccc45)n3)c2c1`
Out: 2.34

In: Param item: `COc1ccc2c(c1)c(-c1nc(-c3c[nH]c4ncccc34)cs1)cn2CCCN1CCOCC1`
Out: 4.07

In: Param item: `COc1ccc2c(c1)c(-c1nc(-c3c[nH]c4ncccc34)cs1)cn2CCCN1CCCCC1`
Out: 3.31

In: Param item: `Cn1cc(-c2csc(-c3cn(CCN4CCOCC4)c4ccc(F)cc34)n2)c2cccnc21`
Out: 5.62

In: Param item: `Cn1cc(-c2csc(-c3cn(CCCCN4CCCCC4)c4ccc(F)cc34)n2)c2cccnc21`
Out: 16.2

In: Param item: `COc1ccc2c(c1)c(-c1nc(-c3c[nH]c4ncccc34)cs1)cn2CCCCN1CCOCC1`
Out: 5.25

New cases:
In: Return reported GI50; argument: `COc1ccc2c(c1)c(-c1nc(-c3cn(C)c4ncccc34)cs1)cn2CCCCN1CCOCC1`
Out: 12

In: Param item: `COc1ccc2c(c1)c(-c1nc(-c3c[nH]c4ncccc34)cs1)cn2CCCCN1CCCCC1`
Out: 1.95

In: Param item: `Fc1ccc2c(c1)c(-c1nc(-c3c[nH]c4ncccc34)cs1)cn2CCCN1CCCCC1`
Out: 3.72

In: Param item: `COc1ccc2c(c1)c(-c1nc(-c3cn(C)c4ncccc34)cs1)cn2CCCCN1CCCCC1`
Out: 1.91
